FYI, the data here is from PubChem BioAssay AID256.

# maps each entry to its T/C
# Test system: CD2F1 mice, L1210 leukemia ip, survival T/C
# Measurement Description: NCI In Vivo Anticancer Drug Screen. Data for tumor model L1210 Leukemia (intraperitoneal) in CD2F1 (CDF1) mice
# Condition Notes: endpoint: mean survival time; dose: 200.0 mg/kg/injection; schedule: Q01DX009 (ip); vehicle: Klucel (hydroxypropylcellulose) (HPC); higher = longer survival
Inconclusive results and toxic doses are left out.
Readout: T/C

{"Compound": "CC(C)(C)CC(C)(C)c1ccc(OCCOc2ccc(C(=O)Nc3ccc(S(=O)(=O)Oc4ccccc4)cc3)cc2[N+](=O)[O-])cc1", "Result": "106 % of control"}
{"Compound": "COc1ccc(NS(=O)(=O)c2ccc(NC(C)=O)cc2)cc1", "Result": "105 % of control"}
{"Compound": "Cc1ccc(NC(=O)Nc2ccc(Nc3ccccc3)cc2)c([N+](=O)[O-])c1", "Result": "92 % of control"}
{"Compound": "CC(C)c1nc(CCl)c(CCl)n1Cc1ccccc1", "Result": "90 % of control"}
{"Compound": "CCCC(=O)Nc1ccn(C2OC(COC(=O)CCC)C(OC(=O)CCC)C2OC(=O)CCC)c(=O)n1 (configuration not stated)", "Result": "114 % of control"}
{"Compound": "CC(=O)C(C)(NCc1ccccc1)c1ccccc1 (configuration not stated)", "Result": "100 % of control"}
{"Compound": "CC1(CCCc2ccc(N(CCCl)CCCl)cc2)NC(=O)NC1=O (configuration not stated)", "Result": "86 % of control"}

====

# Test system: CD2F1 mice, L1210 leukemia ip, survival T/C
# Measurement Description: NCI In Vivo Anticancer Drug Screen. Data for tumor model L1210 Leukemia (intraperitoneal) in CD2F1 (CDF1) mice
# Condition Notes: endpoint: mean survival time; dose: 5.0 mg/kg/injection; schedule: Q01DX009 (ip); vehicle: saline with Tween-80; higher = longer survival
Inconclusive results and toxic doses are left out.

{"Molecule": "N#CC1(O)CCCCC1", "T/C": "104 % of control"}
{"Molecule": "COc1ccc2cc3[n+](cc2c1OC)CCc1cc2c(cc1-3)OCO2", "T/C": "106 % of control"}
{"Molecule": "CC(C)C1=CC2=CCC3C(C)(CN)CCCC3(C)C2CC1CCN (centres undefined)", "T/C": "94 % of control"}
{"Molecule": "CN(C)Cc1cc(C(C)(C)C)cc(CN(C)C)c1O", "T/C": "96 % of control"}

====

# Tested on: CD2F1 mice, L1210 leukemia ip, survival T/C
# Measurement Description: NCI In Vivo Anticancer Drug Screen. Data for tumor model L1210 Leukemia (intraperitoneal) in CD2F1 (CDF1) mice
# Condition Notes: endpoint: mean survival time; dose: 25.0 mg/kg/injection; schedule: Q04DX003 (ip); vehicle: saline; higher = longer survival
Toxic doses and inconclusive results are not listed.

{"Compound": "NS(=O)(=O)Cc1ccccc1", "Target Under Test": "CD2F1 mice, L1210 leukemia ip, survival T/C", "T/C": "107 % of control"}
{"Compound": "CC1CC(C)(C)NC1=O (centres undefined)", "Target Under Test": "CD2F1 mice, L1210 leukemia ip, survival T/C", "T/C": "95 % of control"}
{"Compound": "C=CCNC(=O)NCC=C", "Target Under Test": "CD2F1 mice, L1210 leukemia ip, survival T/C", "T/C": "102 % of control"}
{"Compound": "c1ccc2c(c1)CC1CCCCN1C2 (centres undefined)", "Target Under Test": "CD2F1 mice, L1210 leukemia ip, survival T/C", "T/C": "93 % of control"}
{"Compound": "Cc1cc(=O)[nH]c(=S)[nH]1.[Pd]", "Target Under Test": "CD2F1 mice, L1210 leukemia ip, survival T/C", "T/C": "100 % of control"}
{"Compound": "CN(C)CCCN1c2ccccc2Sc2ccc(C(F)(F)F)cc21", "Target Under Test": "CD2F1 mice, L1210 leukemia ip, survival T/C", "T/C": "115 % of control"}
{"Compound": "c1cc(-n2nnc3cnccc32)ccn1", "Target Under Test": "CD2F1 mice, L1210 leukemia ip, survival T/C", "T/C": "102 % of control"}
{"Compound": "C[N+]1(CCC(c2ccccc2)c2ccccc2)CCCCC1", "Target Under Test": "CD2F1 mice, L1210 leukemia ip, survival T/C", "T/C": "104 % of control"}
{"Compound": "O=C(CBr)c1cccnc1", "Target Under Test": "CD2F1 mice, L1210 leukemia ip, survival T/C", "T/C": "101 % of control"}

====

# Test system: CD2F1 mice, L1210 leukemia ip, survival T/C
# Measurement Description: NCI In Vivo Anticancer Drug Screen. Data for tumor model L1210 Leukemia (intraperitoneal) in CD2F1 (CDF1) mice
# Condition Notes: endpoint: median survival time; dose: 25.0 mg/kg/injection; schedule: Q01DX009 (ip); vehicle: saline with Tween-80; higher = longer survival
Inconclusive results and toxic doses are left out.

{"Molecule": "NC(=S)c1ncn(C2OC(CO)C(O)C2O)c1N (stereo unspecified)", "Target Under Test": "CD2F1 mice, L1210 leukemia ip, survival T/C", "T/C": "122 % of control"}
{"Molecule": "Nc1nc2c(C(=O)N3CCCC3)nnn2c2ccccc12", "Target Under Test": "CD2F1 mice, L1210 leukemia ip, survival T/C", "T/C": "97 % of control"}
{"Molecule": "CC(O)C1(O)C(O)CC(OC2c3cc4c(c(O)c3[C@@H]3C[C@@]2(C)OC32C=c3cc[nH]c3=N2)C(=O)c2cccc(O)c2C4=O)OC1C (stereo partly specified)", "Target Under Test": "CD2F1 mice, L1210 leukemia ip, survival T/C", "T/C": "113 % of control"}
{"Molecule": "COc1cccc(C2NC(=O)c3c(n[nH]c3N)S2)c1O (stereo unspecified)", "Target Under Test": "CD2F1 mice, L1210 leukemia ip, survival T/C", "T/C": "101 % of control"}
{"Molecule": "O=[N+]([O-])c1ccc(Sc2ccncn2)c([N+](=O)[O-])c1", "Target Under Test": "CD2F1 mice, L1210 leukemia ip, survival T/C", "T/C": "103 % of control"}
{"Molecule": "COc1ccc(C(C)c2cc3c(cc2OC)OCO3)cc1 (stereo unspecified)", "Target Under Test": "CD2F1 mice, L1210 leukemia ip, survival T/C", "T/C": "101 % of control"}

====

# Test system: CD2F1 mice, L1210 leukemia ip, survival T/C
# Measurement Description: NCI In Vivo Anticancer Drug Screen. Data for tumor model L1210 Leukemia (intraperitoneal) in CD2F1 (CDF1) mice
# Condition Notes: endpoint: mean survival time; dose: 25.0 mg/kg/injection; schedule: Q01DX009 (ip); vehicle: saline
Inconclusive results and toxic doses are left out. The calls were made as follows: active = survival T/C of 150% or more; inactive = T/C below 125% in these data.
Possible outcomes: active, inactive

{"Compound": "C1CCC2C(C1)NC1CCCCC12 (stereo not given)", "Class Name": "inactive"}
{"Compound": "N=c1nc2n(cc1F)[C@@H]1O[C@H](CO)[C@@H](O)[C@@H]1O2", "Class Name": "active"}
{"Compound": "CS(C)(=O)=C/C(=C\\C(=O)c1ccccc1)c1ccccc1", "Class Name": "inactive"}
{"Compound": "NC(CSC(c1ccccc1)(c1ccccc1)c1cccs1)C(=O)O (stereo not given)", "Class Name": "inactive"}
{"Compound": "O=C(O)CS (tested in a mixture with another compound)", "Class Name": "inactive"}
{"Compound": "NC(CSCc1cccs1)C(=O)O (stereo not given)", "Class Name": "inactive"}
{"Compound": "Nc1ncnc2[nH]c(=O)[nH]c12", "Class Name": "inactive"}
{"Compound": "CC(=O)OCCN1CCN(CC/C=C2\\c3ccccc3Sc3ccc(Cl)cc32)CC1", "Class Name": "inactive"}
{"Compound": "Nc1ncnc2c1ncn2C1OC(COP(=O)(O)O)C(O)C1O (stereo not given)", "Class Name": "inactive"}
{"Compound": "C=CC(=O)N1CCN(C(=O)C=C)c2cc(C)c(C)cc21", "Class Name": "inactive"}

====

# maps each entry to its T/C
# System: CD2F1 mice, L1210 leukemia ip, survival T/C
# Measurement Description: NCI In Vivo Anticancer Drug Screen. Data for tumor model L1210 Leukemia (intraperitoneal) in CD2F1 (CDF1) mice
# Condition Notes: endpoint: median survival time; dose: 100.0 mg/kg/injection; schedule: Q01DX009 (ip); vehicle: Klucel (hydroxypropylcellulose) (HPC); higher = longer survival
Inconclusive results and toxic doses are left out.

{"Compound": "Cn1cc(C2NC(=O)c3ccccc3N2)c2ccccc21 (centres undefined)", "T/C": "119 % of control"}
{"Compound": "C=C(c1ccc(OC)c(OC)c1)c1nccc2cc(OC)c(OC)cc12", "T/C": "89 % of control"}
{"Compound": "CC(=O)NC(CCc1ccc(Cl)c(Cl)c1)c1cccc(O)c(=O)c1 (centres undefined)", "T/C": "116 % of control"}
{"Compound": "O=C1CC2(C(=O)N1CN1CCOCC1)c1ccccc1-c1ccccc12", "T/C": "96 % of control"}
